Tested on: LN-229
Assay: Cytotoxicity against human LN-229 cells assessed as cell viability measured after 48 hrs by countess-II FL Hemocytometer method
Type: functional, cell-based
Conditions: LN-229, 48 h
pIC50: −log10 of the molar value.
measure: pIC50

smiles_notation=CC(C)(C)[Si](O[C@H]1[C@H](O)C[C@](O)(CO)C[C@H]1O[Si](c1ccccc1)(c1ccccc1)C(C)(C)C)(c1ccccc1)c1ccccc1 measure=pIC50 readout_number=4.97

----------
Experiment: Water solubility of the compound
Type: physicochemical
measure: solubility

compound="CCOC(=O)[C@H](CCC(=O)C=[N+]=N)NC(=O)OC(C)OC(=O)C(C)(C)C (stereo partly specified)" result="> 25 mg/mL"

----------
Test: Antiproliferative activity against human ANGM-CSS cells assessed as inhibition of cell growth incubated for 72 hrs by MTS assay
Type: functional, cell-based
pIC50: −log10 of the molar value.
measure: pIC50

smiles_notation=O=C1Nc2ccc(NC(=O)[C@H](NC(=O)c3cccn(Cc4ccc(F)c(F)c4)c3=O)c3ccccc3)cc2/C1=C/c1cnc[nH]1 readout_number=7.36

----------
Assay: Cytotoxicity against human U-87G cells assessed as cell viability
Assay type: functional, cell-based
Settings: U87G
measure: IC50

molecule="C[C@H]1O[C@@H](O[C@H]2CC[C@]3(C=O)[C@H]4CC[C@]5(C)[C@@H](C6CCC(=O)OC6)CC[C@]5(O)[C@@H]4CC[C@]3(O)C2)[C@H](O)[C@@H](O)[C@@H]1O (stereo partly specified)" result="40 µM"

----------
Test system: Astrocyte
Experiment: Cytotoxicity against NHA cells
Type: functional, cell-based
Details: Homo sapiens
Mark MET only for IC50 values smaller than 30 µM; exact matches and larger values are NOT MET.

compound=O=C(COc1ccc2c(=O)c(-c3ccccc3)coc2c1)N=c1[nH]c2ccccc2[nH]1 assigned_label=MET
compound="O=C1Nc2ccccc2C12CCN[C@@H]2c1ccccc1 (stereo partly specified)" assigned_label="NOT MET"
compound=O=C(Nc1ccc(Cl)c(C(F)(F)F)c1)c1ccc(Cl)cc1 assigned_label=MET
compound="NC(=O)CC(c1ccc(NC(=O)c2cccnc2)cc1)c1cccc2[nH]ccc12 (stereo unspecified)" assigned_label=MET
compound="O=C1Nc2ccccc2C1Cc1ccc2cc[nH]c2c1 (stereo unspecified)" assigned_label=MET
compound="O=C1CC(c2ccc(-c3cc[nH]n3)s2)c2cc(N3CCNC3=O)ccc2N1 (stereo unspecified)" assigned_label=MET

----------
This listing pairs compounds with measured pIC50.
Assay: Cytotoxicity against human glial cells
Assay type: toxicity, cell-based, Glial cell
pIC50: −log10 of the molar value.
measure: pIC50

smiles_notation=CCOC(=O)/C=C/c1ccc(/C=C/c2ccc(O)c(O)c2)cc1 readout_number=4.07
smiles_notation=COC(=O)/C=C/c1ccc(/C=C/c2ccc(O)c(O)c2)cc1 readout_number=3.85

----------
Assay: Antiproliferative activity against human U-87 MG cells incubated for 72 hrs by MTT assay
Type: functional, cell-based, U-87MG ATCC
pIC50: −log10 of the molar value.
measure: pIC50

smiles_notation=O=C(NO)c1ccc(Cn2c(=O)n(CCc3ccccc3)c(=O)c3ccccc32)cc1 readout_number=5.81

----------
Target: UniProtKB P30536
Sequence (P30536 whole entry): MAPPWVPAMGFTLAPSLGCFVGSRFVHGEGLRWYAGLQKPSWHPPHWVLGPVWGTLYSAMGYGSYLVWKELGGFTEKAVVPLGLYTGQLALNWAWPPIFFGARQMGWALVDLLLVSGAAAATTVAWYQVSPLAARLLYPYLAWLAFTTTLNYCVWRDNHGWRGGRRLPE
Experiment: Binding affinity to TSPO (unknown origin)
measure: Ki (nM)

smiles_notation=Cc1ccc(CN(C)C(=O)c2nc(-c3ccccc3Cl)c3ccccc3n2)cc1 measure=Ki readout_number=3.99

----------
Assay: Cytotoxicity against human U-87 MG cells
Format: functional, cell-based, U-87MG ATCC
pIC50: −log10 of the molar value.
measure: pIC50

smiles_notation=O=C1c2cc(-c3cccnc3)ncc2C(=O)c2c1c(-c1ccccn1)nn2-c1ccc(F)cc1F readout_number=5.60
